Organism: Rattus norvegicus
Assay procedure: Open TG-GATES - Regimen: Daily Repeat
Format: toxicity, organism-based, Sprague-Dawley
Design: regimen Daily Repeat, gender Male, age 6 weeks
Assay conditions: in vivo, po, 100 mg/kg, 72 h, tissue Plasma, route gavage, dose level Low, time 3 day
Quantity name: GLC
Write the numeric value and follow it with the unit.

# count of solved cases: 3
>>> result("CC(S)C(=O)NCC(=O)O (centres undefined)")
"189.4 mg/dL"
>>> result("O=C(O)c1ccccc1Nc1ccccc1")
"184.4 mg/dL"
>>> result("CCCCNC(=O)NS(=O)(=O)c1ccc(C)cc1 [TOLBUTAMIDE]")
"180.4 mg/dL"

Now for the molecule whose GLC we want.
Specify reported GLC for the molecule shown: CC(=O)[C@@]1(O)CC[C@H]2[C@@H]3C=C(Cl)C4=CC(=O)CC[C@]4(C)[C@H]3CC[C@@]21C
192.4 mg/dL
